The values you see were collected from patent US8987195B2.

Below is a list of entries, each paired with its recorded IC50 value.
Biological target: HCV NS3/4A protease genotype 1b (Hepatitis C virus genotype 1b)
Sequence (P26663 1027-1657): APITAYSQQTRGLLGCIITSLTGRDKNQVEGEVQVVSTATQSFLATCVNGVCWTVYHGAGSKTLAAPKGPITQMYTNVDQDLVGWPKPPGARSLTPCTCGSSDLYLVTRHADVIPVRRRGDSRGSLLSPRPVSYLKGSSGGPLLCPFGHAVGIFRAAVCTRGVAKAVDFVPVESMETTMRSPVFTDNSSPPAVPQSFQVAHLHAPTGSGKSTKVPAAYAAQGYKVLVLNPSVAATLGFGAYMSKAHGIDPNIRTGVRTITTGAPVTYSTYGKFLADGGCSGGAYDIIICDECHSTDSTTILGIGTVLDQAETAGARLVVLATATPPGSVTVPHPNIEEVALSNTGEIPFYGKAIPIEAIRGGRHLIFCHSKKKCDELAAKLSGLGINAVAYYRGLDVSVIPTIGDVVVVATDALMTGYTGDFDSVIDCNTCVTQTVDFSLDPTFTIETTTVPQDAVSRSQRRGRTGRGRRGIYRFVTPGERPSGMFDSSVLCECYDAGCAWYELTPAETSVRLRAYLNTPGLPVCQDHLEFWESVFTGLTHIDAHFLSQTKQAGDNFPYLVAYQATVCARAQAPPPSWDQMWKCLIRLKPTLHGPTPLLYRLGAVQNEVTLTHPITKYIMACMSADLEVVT
Sequence (P26663 1658-1711): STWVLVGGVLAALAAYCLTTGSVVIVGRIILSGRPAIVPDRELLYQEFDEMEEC
Assay: HCV NS3/4A protease time-resolved fluorescence (TRF) assay, Ki against genotype 1b
Format: biochemical
Conditions: IC50 [gt-1b] (nM), NS3/4A genotype 1b, enzyme 0.2 nM
API: value field is a number in nM; no unit string.

Use the examples below as a reference point.
- Cc1nc2ccccc2c2c1O[C@]1(CC2)C[C@H]2C(=O)N[C@]3(C(=O)NS(=O)(=O)C4(C)CC4)C[C@H]3/C=C\CCCCC[C@H](NC(=O)OC(C)(C)CCS(=O)(=O)C(C)C)C(=O)N2C1: 0.027
- COCC(C)(C)OC(=O)N[C@H]1CCCCC/C=C\[C@@H]2C[C@@]2(C(=O)NS(=O)(=O)C2(C)CC2)NC(=O)[C@@H]2C[C@]3(CCc4c(c(C)nc5ccc(OC(F)(F)F)cc45)O3)CN2C1=O: 0.007
- Cc1nc2ccccc2c2c1O[C@]1(CC2)C[C@H]2C(=O)N[C@]3(C(=O)NS(=O)(=O)C4(C)CC4)C[C@H]3/C=C\CCCCC[C@H](NC(=O)OC(C)C(F)(F)F)C(=O)N2C1 (some centres unmarked) [Example 240]: 0.01
- CCc1nc2ccc(OC)cc2c2c1O[C@]1(CC2)C[C@H]2C(=O)N[C@]3(C(=O)NS(=O)(=O)C4(C)CC4)C[C@H]3/C=C\CCCCC[C@H](NC(=O)OC3CCCC3)C(=O)N2C1: 0.008

-- ask Looking for the measured IC50 of `CC1(S(=O)(=O)NC(=O)[C@@]23C[C@H]2/C=C\CCCCC[C@H](NC(=O)OC2CCC2)C(=O)N2C[C@@]4(CCc5c(c(C6CC6)nc6c(F)cccc56)O4)C[C@H]2C(=O)N3)CC1` , can you help?
-- reply 0.028

* * *

System: HCV genotype 1b replicon
Assay: HCV replicon assay, genotype 1b replicon EC50
Assay type: cell-based, Hepatitis C virus
Settings: Hepatitis C virus, HCV replicon, genotype 1b; read-out: EC50 [gt-1b]
measuredProperty: EC50 (nM)
API: value field is a number in nM; no unit string.

Use the examples below as a reference point.
* CC(C)COC(=O)N[C@H]1CCCCC/C=C\[C@@H]2C[C@@]2(C(=O)NS(=O)(=O)C2(C)CC2)NC(=O)[C@@H]2C[C@]3(CCc4c(c(C(F)(F)F)nc5ccc(OCCCN6CCOCC6)cc45)O3)CN2C1=O | 0.782
* CCc1nc2ccc(OC)cc2c2c1O[C@]1(CC2)C[C@H]2C(=O)N[C@]3(C(=O)NS(=O)(=O)C4(C)CC4)C[C@H]3/C=C\CCCCC[C@H](NC(=O)c3ccn(CC)n3)C(=O)N2C1 | 4.71

Continue with the next molecule.
-- ask Missing value: EC50, HCV genotype 1b replicon, entry `COc1ccc2nc(C(F)F)c3c(c2c1)CC[C@]1(C[C@H]2C(=O)N[C@]4(C(=O)NS(=O)(=O)C5(C)CC5)C[C@H]4/C=C\CCCCC[C@H](NC(=O)OC(C)C)C(=O)N2C1)O3` . Fill in?
-- reply 1.17

* * *

Molecular target: HCV NS3/4A protease genotype 1b (Hepatitis C virus genotype 1b)
Assay: HCV NS3/4A protease time-resolved fluorescence (TRF) assay, Ki against genotype 1b
Assay type: biochemical
Settings: IC50 [gt-1b] (nM), NS3/4A genotype 1b, enzyme 0.2 nM
Below is a list of entries, each paired with its recorded IC50 value.
API: value field is a number in nM; no unit string.

Use the examples below as a reference point.
- COC(=O)N[C@H]1CCCCC/C=C\[C@@H]2C[C@@]2(C(=O)NS(=O)(=O)C2(C)CC2)NC(=O)[C@@H]2C[C@]3(CCc4c(c(C5CC5)nc5cc(OC)ccc45)O3)CN2C1=O: 0.127
- Cc1nc2ccc(OC(F)F)cc2c2c1O[C@]1(CC2)C[C@H]2C(=O)N[C@]3(C(=O)NS(=O)(=O)C4(C)CC4)C[C@H]3/C=C\CCCCC[C@H](NC(=O)OCC(C)(C)C)C(=O)N2C1: 0.005
- Cc1nc2ccc(Cl)cc2c2c1O[C@]1(CC2)C[C@H]2C(=O)N[C@]3(C(=O)NS(=O)(=O)C4(C)CC4)C[C@H]3/C=C\CCCCC[C@H](NC(=O)OCC3CCC3)C(=O)N2C1: 0.008

-- ask Missing value: IC50, HCV NS3/4A protease genotype 1b (Hepatitis C virus genotype 1b), entry `COc1ccc2nc(C(F)(F)F)c3c(c2c1)[C@](C)(F)C[C@]1(C[C@H]2C(=O)N[C@]4(C(=O)NS(=O)(=O)C5(C)CC5)C[C@H]4/C=C\CCCCC[C@H](NC(=O)OC(C)(C)C)C(=O)N2C1)O3` . Fill in?
-- reply 0.007

-- ask Also, `CC(C)(C)COC(=O)N[C@H]1CCCCC/C=C\[C@@H]2C[C@@]2(C(=O)NS(=O)(=O)C2(C)CC2)NC(=O)[C@@H]2C[C@]3(CCc4c(c(C(F)F)nc5ccccc45)O3)CN2C1=O` please.
-- reply 0.008

-- ask Also, `COc1ccc2nc(C(F)(F)F)c3c(c2c1)[C@H](N1CCOCC1)C[C@]1(C[C@H]2C(=O)N[C@]4(C(=O)NS(=O)(=O)C5(C)CC5)C[C@H]4/C=C\CCCCC[C@H](NC(=O)OC(C)(C)C)C(=O)N2C1)O3` please.
-- reply 0.011
